Kindly supply the reported TGI values for the records listed here.
- System: HCC-2998 colon
- protocol-details: NCI tumour cell line growth inhibition, 48 h

[ask] Consider the molecule CCN(CC)Cc1c(/C=C\c2cc(OC)c(OC)c(OC)c2)ccc(OC)c1O and give its measured TGI.
[reply] 20.4 µM

[ask] Again, but for C=C(C(=C)P(=S)(c1ccccc1)c1ccccc1)P(=S)(c1ccccc1)c1ccccc1
[reply] > 100 µM

[ask] Again, but for COP(=O)(OC)C(O)CC(C)C (stereo unspecified)
[reply] > 100 µM

[ask] Again, but for COC1OC(COC(=O)c2cc(O)c(O)c(O)c2)C(OC(=O)c2cc(O)c(O)c(O)c2)C(OC(=O)c2cc(O)c(O)c(O)c2)C1OC(=O)c1cc(O)c(O)c(O)c1 (stereo unspecified)
[reply] > 100 µM

[ask] Again, but for COc1ccc(-n2ccnc2-c2cc(OC)c(OC)c(OC)c2)cc1
[reply] 24.6 µM

[ask] Again, but for COc1cc2c(cc1Nc1nc(Nc3cccc(F)c3C(N)=O)c3cc[nH]c3n1)N(C(=O)CN1CCN(C(C)C)CC1)CC2
[reply] 6.31 µM

[ask] Again, but for CC1OC(OC2C(OC3CCC4(C)C(CCC5(C)C4CC=C4C6CC(C)(C)CCC6(C(=O)O)CCC45C)C3(C)CO)OCC(O)C2O)C(O)C(O)C1O (stereo unspecified)
[reply] 30.8 µM

[ask] Again, but for Cc1cccc(-c2cc(=O)c3c(C)cc(C)nc3[nH]2)c1
[reply] > 48.1 µM

[ask] Again, but for COC(=O)CCC(C)C1CCC2C3C(C[C@H](OC(C)=O)[C@]12C)[C@@]1(C)CCC2(C[C@H]1C[C@H]3OC(C)=O)OOC1(CC[C@]3(C)C4C[C@H](OC(C)=O)[C@]5(C)C(C(C)CCC(=O)OC)CCC5C4[C@H](OC(C)=O)C[C@@H]3C1)OO2 (stereo partly specified)
[reply] > 100 µM

[ask] Again, but for O=C(OCc1ccccc1)N(CCCCN(CCCNCc1ccccc1)C(=O)OCc1ccccc1)CCCNCc1ccccc1
[reply] 0.933 µM

[ask] Again, but for Nc1cc(=O)n(-c2ccccc2)c(=S)n1-c1ccccc1
[reply] > 100 µM

[ask] Again, but for CC(=O)N1N=C2/C(=C/c3ccc(Cl)cc3)CC(C)CC2C1c1ccc(Cl)cc1 (stereo unspecified)
[reply] 38.1 µM

[ask] Again, but for COc1ccc(C(=O)/C=C/c2ccc(OCCSCCCCCCCCCCSCCOc3ccc(/C=C/C(=O)c4ccc(OC)c(OC)c4)cc3)cc2)cc1OC
[reply] > 100 µM

[ask] Again, but for Cc1cc(N(CCCl)CCCl)ccc1C=Nc1ccc2ccccc2c1
[reply] > 100 µM

[ask] Again, but for Cn1c(NCC(O)CN2CCCC2)cc(=O)n(C)c1=O (stereo unspecified)
[reply] > 100 µM

[ask] Again, but for CCN(CC)C1CCC(Nc2c(C(C)=O)cnc3ccc(-c4ccc(O)c(Cl)c4)cc23)CC1 (stereo unspecified)
[reply] 12.9 µM

[ask] Again, but for FC(F)(Sc1ncc[nH]1)c1nc2ccccc2o1
[reply] > 100 µM

[ask] Again, but for CCCCCCCCCCCCOC1C(CNC(=O)C2OC3OC(C)(C)OC3C2NC(=O)Nc2ccc(CC(=O)NC(Cc3ccccc3)C(=O)O)cc2)OC2OC(C)(C)OC21 (stereo unspecified)
[reply] > 25 µM

[ask] Again, but for C[C@@H](Oc1ccc(C(=O)NS(=O)(=O)C(C)(C)C)cc1C(F)(F)F)c1ccc(Oc2ccccc2)cn1
[reply] 11.3 µM

[ask] Again, but for O=C(Nc1ccc(/C=C/c2ccc(NC(=O)c3cc(S(=O)(=O)O)c4cccnc4c3O)cc2S(=O)(=O)O)c(S(=O)(=O)O)c1)c1cc(S(=O)(=O)O)c2cccnc2c1O
[reply] > 100 µM

[ask] Again, but for Cc1ccccc1-n1c2nc(=O)n(C)c(=O)c-2nc2ccccc21
[reply] 24.2 µM

[ask] Again, but for OCc1ccc(N2CCc3ccccc3C2)cc1Cl
[reply] 7.11 µM

[ask] Again, but for CC(=O)OC1COC(N2C(=O)C(=O)c3cc(Br)ccc32)C(OC(C)=O)C1OC(C)=O (stereo unspecified)
[reply] > 100 µM

[ask] Again, but for COc1cc(-c2[o+]c3cc(O)cc(O)c3cc2O)cc(O)c1O
[reply] > 100 µM

[ask] Again, but for Cc1ccc(NC(=O)/C(Cl)=C(/Cl)C(=O)O)cc1
[reply] 34.3 µM

[ask] Again, but for Cc1ccc(S(=O)OCC23CC4CC(CC(C4)C2)C3)cc1 (stereo unspecified)
[reply] > 100 µM

[ask] Again, but for Oc1cc2ccccc2c(-c2c(O)c(O)cc3ccccc23)c1O
[reply] 2.61 µM

[ask] Again, but for COC1=CC(c2ccc[nH]2)=N/C1=C\c1[nH]c(C)c(C(=O)CCCCC(=O)Oc2ccc3c(c2)CCC2C3CC[C@]3(C)[C@@H](O)CC[C@@H]23)c1C (stereo partly specified)
[reply] > 100 µM

[ask] Again, but for COc1ccc(/C=C2\CCC/C(=C\c3ccc(O)c(CN4CCCCC4)c3)C2=O)cc1
[reply] 33.4 µM

[ask] Again, but for C=C[C@]1(C)CCC2=C(CCC3C2(C)CCC[C@@]3(C)COC(C)=O)C1 (stereo partly specified)
[reply] 31.8 µM

[ask] Again, but for O=c1c2cc(Cl)cc(Cl)c2oc2nc3n(c(=O)c12)CCCS3
[reply] > 100 µM

[ask] Again, but for COC(=O)[C@H](Cc1ccc(OC(C)(C)C)cc1)N[C@H](C)C(=O)N[C@@H](Cc1ccccc1)C(=O)OCc1ccccc1
[reply] > 100 µM

[ask] Again, but for CN1CCC2(CC1)C(=NC1CCCCC1)NC(=S)N2c1ccccc1
[reply] > 100 µM

[ask] Again, but for Cc1nnc(N)nc1/C=C/c1c(O)ccc2ccccc12
[reply] 45.2 µM

[ask] Again, but for NN1C(=O)C(CCO)S/C1=N/N=C1/SC(CCO)C(=O)N1N (stereo unspecified)
[reply] > 100 µM

[ask] Again, but for CC(C)NC(=O)CCN(C(=O)O)S(=O)(=O)c1ccc(NC(=O)c2ccccc2)cc1
[reply] > 100 µM

---

- Tested on: BT-549 breast
- protocol-details: NCI tumour cell line growth inhibition, 48 h
Use yes when the recorded TGI is no lower than 20 µM; use no when it is lower.

[ask] Assess whether reported TGI for COC1=CC(c2ccc[nH]2)=N/C1=C\c1[nH]c(C)c(C(=O)CCCCC(=O)Oc2ccc3c(c2)CCC2C3CC[C@]3(C)[C@@H](O)CC[C@@H]23)c1C (some centres undefined) sits at 20 µM or higher.
[reply] yes

[ask] Again, but for COc1ccc2[nH]c3c(C)c4ccnc(NCCCN(C)CCCNc5ccc6ncn7c8ccccc8c(=O)c5c67)c4c(C)c3c2c1
[reply] no

[ask] Again, but for Cc1c(O)c2c(c(O)c1Br)C(=O)C=CC2=O
[reply] no

[ask] Again, but for CS(=O)(=O)CC(=O)c1ccccc1
[reply] yes

[ask] Again, but for COc1ccccc1/C=C1\NC(=S)N(/C=C2\C(=O)Oc3ccccc3C2=O)C1=O
[reply] yes

[ask] Again, but for COC(=O)C1=C(C(=O)OC)SC2(S1)C(C(=O)OC)=C(C(=O)OC)Sc1c2ssc1=Nc1ccc(Cl)cc1
[reply] no

[ask] Again, but for CCOC1Oc2ccccc2-c2nc(SC)ncc21 (centres undefined)
[reply] yes

[ask] Again, but for CC1OC(OC2C(OC3CCC4(C)C(CCC5(C)C4CC=C4C6CC(C)(C)CCC6(C(=O)O)CCC45C)C3(C)CO)OCC(O)C2O)C(O)C(O)C1O (centres undefined)
[reply] yes

[ask] Again, but for COC(=O)/C=C/C1(O)C=CC(=O)C=C1
[reply] yes

---

- Test system: RXF 393 renal
- protocol-details: NCI tumour cell line growth inhibition, 48 h
recorded-endpoint: TGI

[ask] Consider the molecule CCOC(=O)C(NC(=O)c1ccccc1)(Nc1ccc(Cl)cc1C(F)(F)F)C(F)(F)F (stereo not drawn) and give its measured TGI.
[reply] 24.7 µM

[ask] Again, but for C[N+](C)(C)CC(=O)N/N=C/c1ccncc1
[reply] > 100 µM

[ask] Again, but for CCCCCCCCCCCCCCCCC(=O)O.CCCCCCCCCCCCCCCCCC(=O)O.CCCCCCCCCCCCCCCCCC(=O)O.CCCCCCCCCCCCCCCCCC(=O)O.CCCCCCCCCCCCCCCCCC(=O)O.CO[CH-]OC12COC1CC(O)C1(C)C(O)C(OC(C)O)C3=C(C)C(OC(=O)C(O)C([NH-])c4ccccc4)CC(O)(C(OC(=O)c4ccccc4)C21)C3(C)C.[Cu+].[Zn].[Zn].[Zn].[Zn].[Zn] (stereo not drawn)
[reply] 0.21 µM

---

- System: ACHN renal
- protocol-details: NCI tumour cell line growth inhibition, 48 h; in the data active = GI50 below about 0.43 µM; inactive = the rest
I would appreciate it if you answered using one of these outcomes: active, inactive

[ask] Record request — test call for CCN1Cc2nc3sc(C)c(C)c3c(=O)n2C=C1C
[reply] inactive

[ask] Again, but for CC(=O)c1cc(C(=O)c2ccc3c(c2)Sc2ccccc2N3)c2cc(C)ccn12
[reply] active

[ask] Again, but for Cn1c(/C=C/[N+](=O)[O-])cc2ccccc21
[reply] inactive

[ask] Again, but for COc1ccc(/C=C/C(=O)c2ccc(OC)c(OC)c2)cc1O
[reply] inactive

[ask] Again, but for O=C(c1ccco1)c1c(C(F)(F)F)n([O-])c2ccc(Cl)cc2[n+]1=O
[reply] active

[ask] Again, but for CC1(C)[C@@H](OC(=O)CCC(=O)O)CC[C@]2(C)[C@H]3C(=O)C=C4[C@@H]5C[C@@](C)(C(=O)O)CC[C@]5(C)CC[C@@]4(C)[C@]3(C)CC[C@@H]12
[reply] inactive

[ask] Again, but for COc1cc(C(=O)N/N=C/c2ccc(N(C)C)cc2)cc(OC)c1OC
[reply] inactive

[ask] Again, but for Clc1cc(Cl)cc(N2N=C(c3cccc(Nc4ccncc4)c3)CC2c2ccc3c(c2)OCO3)c1 (stereo not given)
[reply] inactive

[ask] Again, but for O=C1OCC2=C1C(c1ccc(Cl)c(Cl)c1)c1cc3c(cc1N2CCO)CCC3 (stereo not given)
[reply] active

[ask] Again, but for Cc1cc(N(CCCl)CCCl)ccc1C=Nc1ccc2ccccc2c1
[reply] inactive
